Ref: PubChem BioAssay (EPA / NIEHS)

Read-out: Monokine induced gamma interferon (MIG), CXCL9 (gene 4283)
Assay comment: BSK_CASM3C_MIG: BioMAP Diversity Plus: CASM3C Assay for Monokine induced gamma interferon (MIG) Biomarker Activity (AID 2283048);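 note: MIG protein level measured by ELISA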
Condition set: primary human coronary artery smooth muscle cells; actives raise or lower the signal
Active and inactive are the calls of the source. Rule for the calls: active = hit-call score of the fitted dose curve at least 0.9, where 1 is the maximum; inactive = score below 0.9.
// classify into yes for active, no for inactive

Known results for compounds:
Compound: CCCCc1oc2ccccc2c1C(=O)c1cc(I)c(OCCN(CC)CC)c(I)c1
Assigned class: yes
//
Compound: O=C(NO)c1ccccc1
Assigned class: no
//
Compound: O=P(O)(O)CCC(F)(F)C(F)(F)C(F)(F)C(F)(F)C(F)(F)C(F)(F)C(F)(F)C(F)(F)F
Assigned class: no
//
Compound: C=CC(=C)CC/C=C(\C)CCC=C(C)C
Assigned class: no
//
Compound: O=C(CCCN1CCC(O)(c2ccc(Cl)cc2)CC1)c1ccc(F)cc1
Assigned class: no
//
Compound: C=COC(=O)C(C)(C)CCCCCC
Assigned class: yes

Request: What did this assay record as the result for `OCC(CO)(CBr)CBr` ?
Result: no

Request: What did this assay record as the result for `CCCCCCCCCCCCCCC` ?
Result: no

Request: What did this assay record as the result for `C[C@]12CC[C@@H]3c4ccc(O)cc4CC[C@H]3[C@@H]1C[C@@H](O)[C@@H]2O` ?
Result: no

Request: What did this assay record as the result for `Cc1[nH]nc2c1N=C(c1ccccc1Cl)c1cc([N+](=O)[O-])ccc1N2` ?
Result: yes

Request: What did this assay record as the result for `CS(=O)(=O)c1ccc([C@@H](CC2CCCC2)C(=O)Nc2cnccn2)cc1Cl` ?
Result: no

Request: What did this assay record as the result for `CCCCCCCCCCCCOS(=O)(=O)O` ?
Result: no

Request: What did this assay record as the result for `NC(=NCCCCCCN=C(N)/N=C(\N)Nc1ccc(Cl)cc1)/N=C(\N)Nc1ccc(Cl)cc1` ?
Result: yes

Request: What did this assay record as the result for `O=C(O)CCC(F)(F)C(F)(F)C(F)(F)C(F)(F)C(F)(F)F` ?
Result: no

Request: What did this assay record as the result for `CC(C)(C)c1ccc(O)c(O)c1` ?
Result: no

Request: What did this assay record as the result for CCCCC(CC)C(=O)O (centres undefined) ?
Result: no

Request: What did this assay record as the result for `COc1cccc(O)c1` ?
Result: no

Request: What did this assay record as the result for `CC(=O)Nc1ccc(O)cc1` ?
Result: no

Request: What did this assay record as the result for `O=C(NCc1ncc(C(F)(F)F)cc1Cl)c1c(Cl)cccc1Cl` ?
Result: no

----------
Assay comment: ATG_PBREM_CIS: Attagene CIS-FACTORIAL HepG2 Assay for human Phenobarbital-responsive Enhancer Module (PBREM) (AID 2282955)
Condition set: HepG2 PBREM cis-reporter, Attagene multiplexed transcription; actives raise or lower the signal
Activity calls are given as the source filed them. How the source made its calls: active means hit-call score of the fitted dose curve at least 0.9, where 1 is the maximum; inactive means score below 0.9.
// classify into True for active, False for inactive

Known results for molecules:
Molecule: Nc1cc(Cl)c(-c2cc(Cl)c(N)cc2Cl)cc1Cl
Assigned class: False
//
Molecule: Oc1c(Cl)cc(Cl)cc1Sc1cc(Cl)cc(Cl)c1O
Assigned class: False
//
Molecule: COC1=CC(=O)C[C@@H](C)[C@]12Oc1c(Cl)c(OC)cc(OC)c1C2=O
Assigned class: False
//
Molecule: O=C1c2ccccc2C(=O)c2c(O)c(O)cc(O)c21
Assigned class: False
//
Molecule: OCCN1CN(CCO)CN(CCO)C1
Assigned class: False

Request: What did this assay record as the result for `CCCCCCOC(=O)c1ccc(O)cc1` ?
Result: True

Request: What did this assay record as the result for FC(OC(F)(F)C(F)(F)C(F)(F)F)C(F)(F)F (stereo not drawn) ?
Result: False

Request: What did this assay record as the result for CCCCCCCCCC=CCC1CC(=O)OC1=O (stereo not drawn) ?
Result: False

Request: What did this assay record as the result for `O=C(O)C(F)(F)OC(F)(F)C(F)(F)OC(F)(F)C(F)(F)OC(F)(F)C(F)(F)C(F)(F)C(F)(F)F` ?
Result: False

Request: What did this assay record as the result for `Oc1cccc2c(O)cccc12` ?
Result: False

Request: What did this assay record as the result for CCCCCC(C)OC(=O)COc1ccc(Cl)c2cccnc12 (stereo not drawn) ?
Result: False

Request: What did this assay record as the result for CC(O)COc1ccccc1 (stereo not drawn) ?
Result: False

Request: What did this assay record as the result for `Cc1ccc(N=Nc2c(O)ccc3ccccc23)c(C)c1` ?
Result: False

Request: What did this assay record as the result for `CCCC=O` ?
Result: False

Request: What did this assay record as the result for `O=P(O)(O)CCC(F)(F)C(F)(F)C(F)(F)C(F)(F)C(F)(F)C(F)(F)C(F)(F)C(F)(F)F` ?
Result: False

Request: What did this assay record as the result for `Brc1cc(Br)c(Oc2c(Br)cc(Br)c(Br)c2Br)cc1Br` ?
Result: False

Request: What did this assay record as the result for `O=C(F)C(F)(F)C(F)(F)C(F)(F)C(=O)F` ?
Result: False

Request: What did this assay record as the result for CCO[Si](CCC1CCC2OC2C1)(OCC)OCC (stereo not drawn) ?
Result: False

Request: What did this assay record as the result for `CCc1cccc(CC)c1N(COC)C(=O)CS(=O)(=O)O` ?
Result: True

Request: What did this assay record as the result for `CCN(CCC#N)c1ccccc1` ?
Result: False

Request: What did this assay record as the result for `Cc1ccccc1OCC(=O)O` ?
Result: False

Request: What did this assay record as the result for c1ccc(CNc2ncnc3c2ncn3C2CCCCO2)cc1 (stereo not drawn) ?
Result: True

Request: What did this assay record as the result for `NS(=O)(=O)O` ?
Result: False

Request: What did this assay record as the result for `CCCCc1ccc2ccccc2c1S(=O)(=O)O` ?
Result: False

Request: What did this assay record as the result for `CNNCc1ccc(C(=O)NC(C)C)cc1` ?
Result: False

Request: What did this assay record as the result for `CCOC=C(C(=O)OCC)C(=O)OCC` ?
Result: False

----------
Assay comment: ATG_CMV_CIS: Attagene CIS-FACTORIAL HepG2 Assay for human CMV (Internal Marker) (AID 2282928);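 note: endpoint acts as a background internal control marker rather than a target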
Condition set: HepG2 CMV promoter reporter, transcription factor profiling; actives raise or lower the signal
Active and inactive are the calls of the source. Rule for the calls: active = hit-call score of the fitted dose curve at least 0.9, where 1 is the maximum; inactive = score below 0.9.
// classify into true = active, false = inactive

Compound: CCCCC=O
Assigned class: false

Compound: C=CC(=O)OCC(CO)(COCC(COC(=O)C=C)(COC(=O)C=C)COC(=O)C=C)COC(=O)C=C
Assigned class: true

Compound: CCCCCCCCCCCC[N+](C)(C)CCCCCCCCCCCC
Assigned class: true

Compound: Oc1c(Cl)cc(Cl)cc1Sc1cc(Cl)cc(Cl)c1O
Assigned class: false

Compound: O=C(NCc1ncc(C(F)(F)F)cc1Cl)c1c(Cl)cccc1Cl
Assigned class: false

Compound: OCC1CCC(CO)CC1 (centres undefined)
Assigned class: false

Compound: Cc1ccc(N=Nc2c(O)ccc3ccccc23)c(C)c1
Assigned class: false

Compound: CC(C)[C@@H]1CC[C@@H](C)C[C@H]1O
Assigned class: false

// next entry
Request: What did this assay record as the result for `O=S(=O)(c1ccc(OCc2ccccc2)cc1)c1ccccc1O` ?
Result: true

----------
System under test: Heat shock factor protein 1 (Homo sapiens)
Assay comment: ATG_HSE_CIS: Attagene CIS-FACTORIAL HepG2 Assay for human Heat Shock Transcription Factor 1 (HSE) (AID 2282953)
Condition set: HepG2 HSE cis-reporter, Attagene RNA transcription; actives raise or lower the signal
Calls of active or inactive are those of the source. Rule for the calls: active = hit-call score of the fitted dose curve at least 0.9, where 1 is the maximum; inactive = score below 0.9.
// classify into 1 (yes) = active, 0 (no) = inactive

Known results for compounds:
Compound: CCCCc1oc2ccccc2c1C(=O)c1cc(I)c(OCCN(CC)CC)c(I)c1
Assigned class: 0 (no)

Compound: CCN(CC)CC
Assigned class: 0 (no)

Compound: NCCN
Assigned class: 0 (no)

Request: What did this assay record as the result for `COc1cc(OC)nc(NC(=O)NS(=O)(=O)Nc2ccccc2C(=O)N(C)C)n1` ?
Result: 0 (no)

Request: What did this assay record as the result for `C=COC(=O)C(C)(C)CCCCCC` ?
Result: 0 (no)

Request: What did this assay record as the result for `O=CC(F)(F)C(F)(F)C(F)(F)C(F)F` ?
Result: 0 (no)

Request: What did this assay record as the result for `O=C(Nc1ccc(Cl)c(Cl)c1)c1cc(Cl)cc(Cl)c1O` ?
Result: 1 (yes)

Request: What did this assay record as the result for FC(F)(F)C1(F)C(F)(F)C(F)(F)C(F)(F)C(F)(C(F)(F)F)C1(F)F (stereo not drawn) ?
Result: 0 (no)

Request: What did this assay record as the result for `O=C(NCc1ncc(C(F)(F)F)cc1Cl)c1c(Cl)cccc1Cl` ?
Result: 0 (no)

Request: What did this assay record as the result for CC(C)(C)C1CCCCC1O (stereo not drawn) ?
Result: 0 (no)

Request: What did this assay record as the result for `CC=O` ?
Result: 0 (no)

Request: What did this assay record as the result for `NS(=O)(=O)O` ?
Result: 0 (no)

Request: What did this assay record as the result for `Cc1cc(C(=C2C=CC(=Nc3ccc(S(=O)(=O)O)cc3)C=C2)c2ccc(Nc3ccc(S(=O)(=O)O)cc3)cc2)cc(S(=O)(=O)O)c1N` ?
Result: 0 (no)

Request: What did this assay record as the result for `CCOC=C(C(=O)OCC)C(=O)OCC` ?
Result: 0 (no)

Request: What did this assay record as the result for `O=C(c1cc(O)c(O)c(O)c1)c1ccc(O)c(O)c1O` ?
Result: 0 (no)

Request: What did this assay record as the result for `CN(C)CCOC(c1ccccc1)c1ccccc1` ?
Result: 0 (no)

Request: What did this assay record as the result for `c1cc[nH]c1` ?
Result: 0 (no)

Request: What did this assay record as the result for `CCN(CCC#N)c1ccccc1` ?
Result: 0 (no)

Request: What did this assay record as the result for `CCCCCCCCCCCC` ?
Result: 0 (no)

Request: What did this assay record as the result for `OCC(CO)(CBr)CBr` ?
Result: 0 (no)

Request: What did this assay record as the result for `O=CC(F)(F)C(F)(F)C(F)(F)F` ?
Result: 0 (no)
